Below are MIC values measured for Klebsiella pneumoniae 8045.
Your answer should be a plain number; it is taken to be in mg/L.

Q: Endpoint output: MIC of Nc1ncc(Cc2cc(Cl)c(N)c(Cl)c2)c(N)n1 . Value?
A: 1.56

Q: And then CN(C)c1c(Cl)cc(Cc2cnc(N)nc2N)cc1Cl , what is it?
A: 6.2

Q: And then CNc1c(Cl)cc(Cc2cnc(N)nc2N)cc1Cl , what is it?
A: 6.2

Q: And then CCNc1c(Cl)cc(Cc2cnc(N)nc2N)cc1Cl , what is it?
A: 12.5

###

# Test system: P. Mirabilis
# assay_summary: Acute Mouse Protection Test (Table 6)
# Assay type: in vivo, Female, Swiss albino mice
# test_settings: approximate, combination with sulfamethoxazole, medicated 1 and 5 hours post-infection, 7 days
# Method: The test bacteria were transferred to Brain Heart Infusion Broth and incubated at 37° C. for 18 hours. Log dilutions of the organism were made in BHI broth and mixed with 3% hog gastric mucin. Female, Swiss albino mice, 18 - 20 grams, were injected intraperitoneally with 0.75 ml. of inoculum. The optimum dilution was one in which each mouse received 10 - 10 LD50 's of the infecting organism. […]
metric: CD50, Cmpd. part of the Sulfa/Cmpd. combination (Mg./Kg.)
Your answer should be a plain number; it is taken to be in Mg./Kg..

Q: Endpoint output: CD50, Cmpd. part of the Sulfa/Cmpd. combination of Nc1ncc(Cc2cc(Cl)c(N)c(Cl)c2)c(N)n1 . Value?
A: 30

Q: And then CCNc1c(Cl)cc(Cc2cnc(N)nc2N)cc1Cl , what is it?
A: 30

Q: And then CNc1c(Cl)cc(Cc2cnc(N)nc2N)cc1Cl , what is it?
A: 60

Q: And then CN(C)c1c(Cl)cc(Cc2cnc(N)nc2N)cc1Cl , what is it?
A: 80

###

Below are MIC values measured for Escherichia coli Juhl.
Your answer should be a plain number; it is taken to be in µg/mL.

Q: Endpoint output: MIC of CCNc1c(Cl)cc(Cc2cnc(N)nc2N)cc1Cl . Value?
A: 3.1

Q: And then CNc1c(Cl)cc(Cc2cnc(N)nc2N)cc1Cl , what is it?
A: 6.2

Q: And then CN(C)c1c(Cl)cc(Cc2cnc(N)nc2N)cc1Cl , what is it?
A: 6.2

Q: And then Nc1ncc(Cc2cc(Cl)c(N)c(Cl)c2)c(N)n1 , what is it?
A: 0.78

###

# Tested on: Streptococcus pyogenes C203
# assay_summary: Tube dilution test, Mueller Hinton Medium (Table 3)
# Format: cell-based
# test_settings: 18 h, read-out: Minimum Inhibitory Concentration
Please provide measured MIC for the entries that follow.
Put down the number, then write its unit next to it.

Q: Give recorded MIC with Streptococcus pyogenes C203 for the following compound: CN(C)c1c(Cl)cc(Cc2cnc(N)nc2N)cc1Cl
A: 3.1 µg/mL

Q: And then Nc1ncc(Cc2cc(Cl)c(N)c(Cl)c2)c(N)n1 , what is it?
A: 6.2 µg/mL

Q: And then CCNc1c(Cl)cc(Cc2cnc(N)nc2N)cc1Cl , what is it?
A: 12.5 µg/mL

Q: And then CNc1c(Cl)cc(Cc2cnc(N)nc2N)cc1Cl , what is it?
A: 6.2 µg/mL

###

Below are MIC values measured for Staphylococcus aureus 209P.
Your answer should be a plain number; it is taken to be in µg/mL.

Q: Endpoint output: MIC of Nc1ncc(Cc2cc(Cl)c(N)c(Cl)c2)c(N)n1 [V] . Value?
A: 6.2

Q: And then CCNc1c(Cl)cc(Cc2cnc(N)nc2N)cc1Cl [VII] , what is it?
A: 3.1

Q: And then CNc1c(Cl)cc(Cc2cnc(N)nc2N)cc1Cl [VI] , what is it?
A: 3.1

Q: And then CN(C)c1c(Cl)cc(Cc2cnc(N)nc2N)cc1Cl [VIII] , what is it?
A: 1.56

###

# System: E. Coli 3100
# assay_summary: In vitro potentiation of sulfonamides, two-fold tube dilution test in BBL Nutrient broth (Table 5)
# Assay type: cell-based, Escherichia Coli
# test_settings: Sulfadiazine; Compound/Sulfa Ratio 1:1; MIC of sulfonamide alone vs in combination
metric: Potentiation
Put down the number, then write its unit next to it.

Q: Endpoint output: Potentiation of CNc1c(Cl)cc(Cc2cnc(N)nc2N)cc1Cl [VI] . Value?
A: 15.9 X

Q: And then CCNc1c(Cl)cc(Cc2cnc(N)nc2N)cc1Cl [VII] , what is it?
A: 8.0 X

Q: And then CN(C)c1c(Cl)cc(Cc2cnc(N)nc2N)cc1Cl [VIII] , what is it?
A: 8.0 X

Q: And then Nc1ncc(Cc2cc(Cl)c(N)c(Cl)c2)c(N)n1 [V] , what is it?
A: 31.0 X

Cited source for all entries: patent US4087528A
